For each record, write down the corresponding IC50.
target.of.assay: LK35.2-hPD-L1 cells / PE-labeled PD-1-Ig (Homo sapiens)
Construct: expressed in transfected cells; host or cells: LK35.2 mouse B cell line
Sequence (Q9NZQ7 19-290): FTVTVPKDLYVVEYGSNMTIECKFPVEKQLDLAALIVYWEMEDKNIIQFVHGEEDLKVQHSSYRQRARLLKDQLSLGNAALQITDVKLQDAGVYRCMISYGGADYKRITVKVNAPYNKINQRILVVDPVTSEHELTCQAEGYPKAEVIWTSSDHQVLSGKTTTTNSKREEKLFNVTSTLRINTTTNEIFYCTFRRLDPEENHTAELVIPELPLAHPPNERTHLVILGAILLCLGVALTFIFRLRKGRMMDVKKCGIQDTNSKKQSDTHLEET
assay: LK35.2-hPD-L1 cell binding high-content screening assay
Assay type: cell-based
condition.summary: cluster symbol; cell line of CBA not given (LK35.2-hPD-L1 or 293T-hPD-L1); read-out: CBA IC50 cluster
Positions of bridges follow the written chain, without caps; N, C: chain ends. Non-standard residues stand in square brackets, D forms with d. Residues, ends and D or L forms follow the SMILES beside them. Ala(indol-4-yl) = N[C@@H](Cc1cccc2[nH]ccc12)C(=O)O; Phe(3-CF3) = N[C@@H](Cc1cccc(C(F)(F)F)c1)C(=O)O; Phe(2-Me) = Cc1ccccc1C[C@H](N)C(=O)O; NMeF = CN[C@@H](Cc1ccccc1)C(=O)O; NMeNle = CCCC[C@H](NC)C(=O)O; Sar = CNCC(=O)O

Prompt: Name the value of IC50 reported for CCCC[C@H]1C(=O)N(C)CC(=O)N[C@@H](CC(=O)O)C(=O)N[C@@H](C(C)C)C(=O)N[C@@H](Cc2ccccc2C)C(=O)N[C@@H](Cc2ccc(O)cc2)C(=O)N(C)CC(=O)N[C@@H](Cc2c[nH]c3ccccc23)C(=O)N[C@@H](Cc2ccc(O)cc2)C(=O)N[C@@H](CC(C)C)C(=O)N[C@H](C(=O)NCC(N)=O)CSCC(=O)N[C@@H](Cc2ccccc2)C(=O)N(C)[C@@H](Cc2ccccc2)C(=O)N1C [Example 3133] ({CH2CO}-F[NMeF][NMeNle][Sar]DV[Phe(2-Me)]Y[Sar]WYLCG-NH2; thioether N-13) when tested on LK35.2-hPD-L1 cells / PE-labeled PD-1-Ig (Homo sapiens).
Response: > 74.3 nM

Prompt: Name the value of IC50 reported for CCCC[C@H]1C(=O)N(C)CC(=O)N[C@@H](CC(=O)O)C(=O)N[C@@H](C(C)C)C(=O)N(C)[C@@H](Cc2ccccc2)C(=O)N[C@@H](Cc2ccc(O)cc2)C(=O)N(C)CC(=O)N[C@@H](Cc2cccc3[nH]ccc23)C(=O)N[C@@H](Cc2ccc(O)cc2)C(=O)N[C@@H](CC(C)C)C(=O)N[C@H](C(=O)NCC(N)=O)CSCC(=O)N[C@@H](Cc2ccccc2)C(=O)N(C)[C@@H](Cc2ccccc2)C(=O)N1C [Example 3071] ({CH2CO}-F[NMeF][NMeNle][Sar]DV[NMeF]Y[Sar][Ala(indol-4-yl)]YLCG-NH2; thioether N-13) when tested on LK35.2-hPD-L1 cells / PE-labeled PD-1-Ig (Homo sapiens).
Response: 4.78 to 72.9 nM

Prompt: Name the value of IC50 reported for CCCC[C@H]1C(=O)N(C)CC(=O)N[C@@H](CC(=O)O)C(=O)N[C@@H](C(C)C)C(=O)N(C)[C@@H](Cc2ccccc2)C(=O)N[C@@H](Cc2ccc(O)cc2)C(=O)N(C)CC(=O)N[C@@H](Cc2c[nH]c3ccccc23)C(=O)N[C@@H](Cc2ccc(O)cc2)C(=O)N[C@@H](CC(C)C)C(=O)N[C@H](C(=O)NCC(N)=O)CSCC(=O)N[C@@H](Cc2cccc(C(F)(F)F)c2)C(=O)N(C)[C@@H](Cc2ccccc2)C(=O)N1C [Example 3106] ({CH2CO}-[Phe(3-CF3)][NMeF][NMeNle][Sar]DV[NMeF]Y[Sar]WYLCG-NH2; thioether N-13) when tested on LK35.2-hPD-L1 cells / PE-labeled PD-1-Ig (Homo sapiens).
Response: 4.78 to 72.9 nM

Prompt: Name the value of IC50 reported for `CCCC[C@H]1C(=O)N(C)[C@@H](CCCC)C(=O)N[C@@H](CCN)C(=O)N[C@H](C(=O)NCC(N)=O)CSCC(=O)N[C@@H](Cc2ccc(O)cc2)C(=O)N(C)[C@@H](C)C(=O)N[C@@H](CC(N)=O)C(=O)N2CCC[C@H]2C(=O)N[C@@H](Cc2cnc[nH]2)C(=O)N[C@@H](CC(C)C)C(=O)N2C[C@H](O)C[C@H]2C(=O)N[C@@H](Cc2c[nH]c3ccccc23)C(=O)N[C@@H](CO)C(=O)N[C@@H](Cc2c[nH]c3ccccc23)C(=O)N1C` when tested on LK35.2-hPD-L1 cells / PE-labeled PD-1-Ig (Homo sapiens).
Response: 0.158 to 4.71 nM

====

target.of.assay: Human PD-L1/PD-1 (Homo sapiens, UniProt Q9NZQ7)
Construct: made in house; host or cells: HEK293T
Sequence (Q9NZQ7 with tags, fused parts or gaps): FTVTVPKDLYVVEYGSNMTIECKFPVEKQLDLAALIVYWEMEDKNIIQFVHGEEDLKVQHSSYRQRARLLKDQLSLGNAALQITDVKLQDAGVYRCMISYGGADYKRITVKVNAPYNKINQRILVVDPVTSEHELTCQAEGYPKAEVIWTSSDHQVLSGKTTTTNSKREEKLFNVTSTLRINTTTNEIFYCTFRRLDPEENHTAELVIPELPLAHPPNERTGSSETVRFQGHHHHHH
assay: HTRF PD-1-Ig/PD-L1-His binding assay (human PD-L1)
condition.summary: cluster symbol; read-out: HTRF IC50 cluster
pIC50: −log10 of the molar value. Positions of bridges follow the written chain, without caps; N, C: chain ends. Non-standard residues stand in square brackets, D forms with d. Residues, ends and D or L forms follow the SMILES beside them. Bta = N[C@@H](Cc1csc2ccccc12)C(=O)O; Hyp = O=C(O)[C@@H]1C[C@@H](O)CN1; NMeNle = CCCC[C@H](NC)C(=O)O; NMeA = CN[C@@H](C)C(=O)O; Dab = NCC[C@H](N)C(=O)O; Dap = NC[C@H](N)C(=O)O
assay.endpoint: pIC50

Prompt: Name the value of pIC50 reported for CCCC[C@H]1C(=O)N(C)[C@@H](CCCC)C(=O)N[C@@H](CN)C(=O)N[C@H](C(=O)NCC(N)=O)CSCC(=O)N[C@@H](Cc2ccc(O)cc2)C(=O)N(C)[C@@H](C)C(=O)N[C@@H](CC(N)=O)C(=O)N2CCC[C@H]2C(=O)N[C@@H](CN)C(=O)N[C@@H](CC(C)C)C(=O)N2C[C@H](O)C[C@H]2C(=O)N[C@@H](Cc2c[nH]c3ccccc23)C(=O)N[C@@H](CCN)C(=O)N[C@@H](Cc2csc3ccccc23)C(=O)N1C [Example 1180] ({CH2CO}-Y[NMeA]NP[Dap]L[Hyp]W[Dab][Bta][NMeNle][NMeNle][Dap]CG-NH2; thioether N-14) when tested on Human PD-L1/PD-1 (Homo sapiens, UniProt Q9NZQ7).
Response: 8.17 to 9.41

====

target.of.assay: LK35.2-hPD-L1 cells / PE-labeled PD-1-Ig (Homo sapiens)
Construct: expressed in transfected cells; host or cells: LK35.2 mouse B cell line
assay: LK35.2-hPD-L1 cell binding high-content screening assay
Type: cell-based
condition.summary: cluster symbol; cell line of CBA not given (LK35.2-hPD-L1 or 293T-hPD-L1); read-out: CBA IC50 cluster
pIC50: −log10 of the molar value. Positions of bridges follow the written chain, without caps; N, C: chain ends. Non-standard residues stand in square brackets, D forms with d. Residues, ends and D or L forms follow the SMILES beside them. Hyp = O=C(O)[C@@H]1C[C@@H](O)CN1; NMeNle = CCCC[C@H](NC)C(=O)O; NMeA = CN[C@@H](C)C(=O)O; Orn = NCCC[C@H](N)C(=O)O
assay.endpoint: pIC50

Prompt: Look up pIC50 of CCCC[C@H]1C(=O)N(C)[C@@H](CCCC)C(=O)N[C@@H](C)C(=O)N[C@H](C(=O)NCC(N)=O)CSCC(=O)N[C@@H](Cc2ccc(O)cc2)C(=O)N(C)[C@@H](C)C(=O)N[C@@H](CC(=O)O)C(=O)N2CCC[C@H]2C(=O)N[C@@H](Cc2cnc[nH]2)C(=O)N[C@@H](CCCN)C(=O)N2C[C@H](O)C[C@H]2C(=O)N[C@@H](Cc2c[nH]c3ccccc23)C(=O)N[C@@H](CO)C(=O)N[C@@H](Cc2c[nH]c3ccccc23)C(=O)N1C [Example 1140] ({CH2CO}-Y[NMeA]DPH[Orn][Hyp]WSW[NMeNle][NMeNle]ACG-NH2; thioether N-14) and report it.
Response: 8.33 to 9.80

====

target.of.assay: Human PD-L1/PD-1 (Homo sapiens, UniProt Q9NZQ7)
Construct: made in house; host or cells: HEK293T
assay: HTRF PD-1-Ig/PD-L1-His binding assay (human PD-L1)
condition.summary: Table 6; read-out: HTRF Human PD-L1/PD-1 Binding Assay IC50
Positions of bridges follow the written chain, without caps; N, C: chain ends. Non-standard residues stand in square brackets, D forms with d. Residues, ends and D or L forms follow the SMILES beside them. ξ: configuration not given here. NMeNle = CCCC[C@H](NC)C(=O)O; NMeA = CN[C@@H](C)C(=O)O; ξP = O=C(O)C1CCCN1; Sar = CNCC(=O)O
For each record, write down the corresponding IC50.
// note: answer is a bare numeric in nM

Prompt: Look up IC50 of CCCC[C@H]1C(=O)N(C)[C@@H](CCCC)C(=O)N[C@@H](CC(C)C)C(=O)N[C@H](C(=O)NCC(N)=O)CSCC(=O)N[C@@H](Cc2ccccc2)C(=O)N(C)[C@@H](C)C(=O)N[C@@H](CC(N)=O)C(=O)N2CCC[C@H]2C(=O)N[C@@H](Cc2c[nH]cn2)C(=O)N[C@@H](CC(C)C)C(=O)N[C@@H](CO)C(=O)N[C@@H](Cc2c[nH]c3ccccc23)C(=O)N[C@@H](CCCNC(=N)N)C(=O)N[C@@H](Cc2c[nH]c3ccccc23)C(=O)N1C [Compound No. 4] ({CH2CO}-F[NMeA]NPHLSWRW[NMeNle][NMeNle]LCG-NH2; thioether N-14) and report it.
Response: 15

Prompt: Look up IC50 of CCCC[C@H]1C(=O)N(C)[C@@H](CCCC)C(=O)N[C@@H](CC(C)C)C(=O)N[C@H](C(=O)NCC(N)=O)CSCC(=O)N[C@@H](Cc2ccccc2)C(=O)N(C)[C@@H](C)C(=O)N[C@@H](CC(N)=O)C(=O)N2CCC[C@H]2C(=O)N[C@@H](Cc2cnc[nH]2)C(=O)N[C@@H](CCCNC(=N)N)C(=O)N[C@@H](CO)C(=O)N[C@@H](Cc2c[nH]c3ccccc23)C(=O)N[C@@H](CCCNC(=N)N)C(=O)N[C@@H](Cc2c[nH]c3ccccc23)C(=O)N1C [Compound No. 3] ({CH2CO}-F[NMeA]NPHRSWRW[NMeNle][NMeNle]LCG-NH2; thioether N-14) and report it.
Response: 13

Prompt: Look up IC50 of CC[C@H](C)[C@@H]1NC(=O)[C@H](CC(C)C)NC(=O)[C@H](Cc2ccccc2)NC(=O)CSC[C@@H](C(=O)NCC(N)=O)NC(=O)[C@H](CCCNC(=N)N)NC(=O)[C@H](Cc2ccccc2)NC(=O)[C@H](C(C)C)NC(=O)[C@H](CCCNC(=N)N)NC(=O)[C@H](CC(=O)O)NC(=O)[C@H](CCCNC(=N)N)NC(=O)[C@H]([C@@H](C)CC)NC(=O)[C@H](C(C)C)NC1=O [Compound No. 99] (HELM PEPTIDE1{[O=C(C[*:3])[*:2]].F.L.I.V.I.R.D.R.V.F.R.C.G.[am]}$PEPTIDE1,PEPTIDE1,1:R3-13:R3$$$V2.0) and report it.
Response: 153

Prompt: Look up IC50 of CCCC[C@H]1C(=O)N(C)[C@@H](CCCC)C(=O)N[C@@H](CCCNC(=N)N)C(=O)N[C@H](C(=O)NCC(N)=O)CSCC(=O)N[C@@H](Cc2ccccc2)C(=O)N(C)[C@@H](C)C(=O)N[C@@H](CC(N)=O)C(=O)N2CCCC2C(=O)N[C@@H](Cc2cnc[nH]2)C(=O)N[C@@H](CC(C)C)C(=O)N(C)CC(=O)N[C@@H](Cc2c[nH]c3ccccc23)C(=O)N[C@@H](CO)C(=O)N[C@@H](Cc2c[nH]c3ccccc23)C(=O)N1C (stereo partly shown) [Compound No. 1] ({CH2CO}-F[NMeA]N[ξP]HL[Sar]WSW[NMeNle][NMeNle]RCG-NH2; thioether N-14) and report it.
Response: 9

Origin of values: patent US9850283B2
